Molecular target: PDE10A
Test: Phosphodiesterase assay (TR-FRET, LANCE cAMP kit)
Settings: PDE10A (BPS Bioscience) 200 pg/well, biotin-cAMP substrate, 60 min at room temperature
Where a name gives a salt, the structure may show the parent alone.
measurement-name: IC50 (nM)

I = CCc1nc(O)c(Cc2cnc3ccc(OC)cc3c2)c2cc(OC)c(OC)cc12 [Compound 85, dihydrochloride]
II = CNc1nc2cc3c(cc2cc1Cc1c(O)nc(C)c2cc(OC)c(OC)cc12)OCO3 [Compound 60, dihydrochloride]
III = CCCc1nc(O)c(Cc2cnc3cc(OC)ccc3c2)c2cc(OC)c(OC)cc12 [Compound 32, dihydrochloride]
// sort entries: IC50, high to low Submit the labels in the order that the ranking request calls for. III, II, I
(III: 4 nM, II: 2.7 nM, I: 0.4 nM)

###

Target: PDE10A
Assay: Phosphodiesterase assay (TR-FRET, LANCE cAMP kit)
Conditions: PDE10A (BPS Bioscience) 200 pg/well, biotin-cAMP substrate, 60 min at room temperature
Structures can show the parent of a compound that is named as a salt.
measurement-name: IC50 (nM)

Examples from the recorded data:
[
  {
    "compound": "CNc1nc2cc(O)c(O)cc2cc1Cc1c(O)nc(C)c2cc(OC)c(OC)cc12 [Compound 59, dihydrochloride]",
    "units-symbol": "nM",
    "IC50": 27
  },
  {
    "compound": "CCNc1nc2ccc(OC)cc2cc1Cc1c(O)nc(CC)c2cc(OC)c(OC)cc12 [Compound 40, dihydrochloride]",
    "units-symbol": "nM",
    "IC50": 0.4
  },
  {
    "compound": "COc1cc2c(C)nc(O)c(Cc3ccc4ncccc4c3)c2cc1OC [Compound 24, dihydrochloride]",
    "units-symbol": "nM",
    "IC50": 86
  }
]

P = CCc1nc(O)c(Cc2ccc3oc4ccccc4c3c2)c2cc(OC)c(OC)cc12 [Compound 6, hydrochloride]
Q = CCc1nc(O)c(Cc2cc3cc(OC)ccc3nc2NCCNC(C)=O)c2cc(OC)c(OC)cc12 [Compound 69, dihydrochloride]
Could you determine which record has the numerically smaller IC50? Candidates: P and Q Write down the label of the entry you select. P

a = COc1cc2c(C)nc(O)c(Cc3ccc4ccccc4n3)c2cc1OC [Compound 23, dihydrochloride]
b = COc1cc2c(C)nc(O)c(Cc3cnc4ccccc4c3)c2cc1OC [Compound 26, dihydrochloride]
c = COc1cc2c(C)nc(OC)c(Cc3ccc4ccccc4c3)c2cc1OC [Compound 18, hydrochloride]
Rank the 3 compounds: largest IC50 first, smallest last. Submit the labels in the order that the ranking request calls for. c, a, b

###

Biological target: PDE10A
Assay: Phosphodiesterase assay (TR-FRET, LANCE cAMP kit)
Conditions: PDE10A (BPS Bioscience) 200 pg/well, biotin-cAMP substrate, 60 min at room temperature
Counter-ions that a name gives are not always drawn.
measurement-name: IC50 (nM)

Examples from the recorded data:
[
  {
    "compound": "CCNc1nc2ccc(OC)cc2cc1Cc1c(O)nc(COC)c2cc(OC)c(OC)cc12 [Compound 67, dihydrochloride]",
    "measurement-name": "IC50",
    "units-symbol": "nM",
    "readout-value": 1.8
  },
  {
    "compound": "CCCc1nc(O)c(Cc2cc3cc4c(cc3nc2N(C)C)OCO4)c2cc(OC)c(OC)cc12 [Compound 63, dihydrochloride]",
    "measurement-name": "IC50",
    "units-symbol": "nM",
    "readout-value": 560
  },
  {
    "compound": "CCc1nc(O)c(Cc2cnc3ccccc3c2)c2cc(OC)c(OC)cc12 [Compound 78, dihydrochloride]",
    "measurement-name": "IC50",
    "units-symbol": "nM",
    "readout-value": 27
  },
  {
    "compound": "COc1cc2c(C)nc(O)c(Cc3cccc(-c4ccncc4)n3)c2cc1OC [Compound 14, trihydrochloride]",
    "measurement-name": "IC50",
    "units-symbol": "nM",
    "readout-value": 100
  },
  {
    "compound": "CCCc1nc(O)c(Cc2ccc3oc4ccccc4c3c2)c2cc(OC)c(OC)cc12 [Compound 7, hydrochloride]",
    "measurement-name": "IC50",
    "units-symbol": "nM",
    "readout-value": 0.5
  },
  {
    "compound": "CCCc1nc(O)c(Cc2cc3cc(OC)ccc3nc2NC(C)C)c2cc(OC)c(OC)cc12 [Compound 53, dihydrochloride]",
    "measurement-name": "IC50",
    "units-symbol": "nM",
    "readout-value": 0.8
  }
]

P = CCCc1nc(O)c(Cc2ccc3ccccc3c2)c2cc(OC)c(OC)cc12 [Compound 20, hydrochloride]
Q = CCCc1nc(O)c(Cc2cc3cc(OC)ccc3nc2NCCOC)c2cc(OC)c(OC)cc12 [Compound 76, dihydrochloride]
Given P and Q , report the one with the higher recorded IC50. Write down the label of the entry you select. P

a = CCc1nc(O)c(Cc2cccc(-c3ccc(OC)cc3)c2)c2cc(OC)c(OC)cc12 [Compound 9, hydrochloride]
b = COc1ccc2nc(NCCNC(C)=O)c(Cc3c(O)nc(C)c4cc(OC)c(OC)cc34)cc2c1 [Compound 73, dihydrochloride]
Given a and b , report the one with the higher recorded IC50. Write down the label of the entry you select. a
